Assign Enzyme Activity Endpoint Assay (purified): IgG to each entry below.
System under test: pooled human IgG (human); further: test concentration or dose not given here
Method summary: cell-based or functional assay
Express your answer in ng/µL, writing the number without its unit.

Query: Recorded Enzyme Activity Endpoint Assay (purified): IgG of PRT-207 (enzyme) MEVVEVWPYGQNPNGKTEILSQTEDSESLQRLRDIEDFQAEKKKEGVVYTKWLDGVDVDDHDFRKIVDGNIAYYATPLLNGRGFYDINKDFNRDSDKCAAAVAANMFHYWLDRNRDNVDRFLKQNPEKHGIIELPDGQLKLSDFLNTYESDNGYRDKSKLFDFISNNFNGPVWTDKLLDNYINGYAYNYKYGRTIEDPTKNTSKINFFKEVFNEKILTNNHSIRNYNTFSDLLSEALYTGKAIGLSYGPAGLRHSLGHIISVWGADLDADGNVVAIYVTDSDDKKLTIGDERVGLKRYKVSSDDENRLRLTAYEETHNTGGQIRGIWTLDTGKQAWADYFDKTEQTGTDQAEQLEHHHHHH , please.
Result: 1290

Query: Recorded Enzyme Activity Endpoint Assay (purified): IgG of PRT-196 (enzyme) MEVVEVWPYGQNPNGKTEILSQTEDSESLQRLRDIEDFQAEKKMQNVVYTKWLDGVDVKDHDFRKIVDGNIAYYATPLLNGRGFYDINKDFNRDSDKCAAAVAANMFHYWLDINRDNVDRFLRQNPEKHGIIELPDGQLKLSDFLNTYESDHGYRDKSKLFDFISNNFNGPVWTDKLLDNYINGYAYNYKYGRTIEDPTKNTSKINFFKEVFNEKILTNNHSIRNQNEFSVLLSEALYTGKAIGLSYGPAGLRHSLGHIISVWGADLDADGNVVAIYVTDSDDKKLTIGDERVGLKRYKISTDDENRLRLTAYEETHNTGGQIRGLWTLDTGKYAWADYFDKTEQTGTDQAEQLEHHHHHH , please.
Result: 707
